# System: RPMI-8226 leukemia
# assay procedure: NCI-60 one-dose screen, 48 h
# test context: 10 µM unless noted
About 83,000 compounds went through this panel and 20% of them were active in at least one assay; those are over-represented in the sample as a whole. Active and inactive are the calls of the source. The calls were made as follows: active = growth percent below 10; inactive = the rest.
Thanks in advance; please answer with one of these: True = active, False = inactive

COc1ccc(-c2cc(C(=O)N=Nc3c(O)[nH]c4ccc(Cl)cc34)c3ccccc3n2)cc1OC
False

QUERY: Could you please tell me the result logged for `COc1cc(CNC(=O)C[C@H](C)CCC=C(C)C)ccc1OCc1cn(-c2ccc(Cl)cc2Cl)nn1` in this assay?
RESULT: False

QUERY: Entry `S=C(Nc1ccc(OCc2nc3ccc(Cl)cc3[nH]2)cc1)NC1CCCCC1` : call = ?
RESULT: True

QUERY: Field: outcome | Entry: `OC(c1ccccc1)(c1ccccc1)C1CCN(c2ccc3nnc(Cl)n3n2)CC1`
RESULT: False

QUERY: Write down the call the test reported for this compound. Item: `CC(C)(C)OC(=O)N1C/C(=C\c2ccc(F)cc2)C(=O)/C(=C/c2ccc(F)cc2)C1`
RESULT: True

###

# Test system: MDA-MB-231 breast
# assay procedure: NCI-60 one-dose screen, 48 h (100 = growth as untreated, 0 = no growth, -100 = all killed)
# test context: 10 µM unless noted
Compounds without any hit were thinned out: in the full panel of roughly 83,000, 20% have a hit.
// reported growth for each item listed
The reply should contain only the number, in %.

Here is how some molecules turned out for growth.
CC(C)(C)OC(=O)N1CCC2(CC1)Oc1ccccc1[C@H]1CC(c3ccc(Br)cc3)=NN12
63
Clc1ccc2c(NCCNC34CC5CC(CC(C5)C3)C4)ccnc2c1
-72.1
COc1ccc(-c2nc3ccccc3n2CC(=O)N=Nc2c(O)[nH]c3ccc(OC)cc23)cc1
66.5
CS(=O)(=O)Nc1cncc(-c2ccc3ncnc(NCc4ccccc4)c3c2)c1
40

QUERY: If you can, please state the reported growth value of `COc1ccc2[nH]cc(-c3cc(N)n4nc(-c5c[nH]c6ccccc56)cc4n3)c2c1` .
RESULT: -69.9

QUERY: // returns reported growth for input `COC(=O)c1cc(C(=O)C(F)(F)F)n2c3ccccc3c3ccccc3c12`
RESULT: 42.4

QUERY: Which growth value is on record for `O=C(N/N=C/c1ccc(Cl)o1)c1[nH]c2ccc(Br)cc2c1-c1ccccc1` ?
RESULT: -69.9

QUERY: Which growth value is on record for `COc1c(B(O)O)cc(F)cc1-c1nc2ccc3[nH]ncc3c2c2c1COCC2` ?
RESULT: 33.4

QUERY: Name the recorded growth for Cc1cc(C2(c3cc(C)c(OCC(O)CNc4c(C)n(C)n(-c5ccccc5)c4=O)cc3C(C)C)OC(=O)c3ccccc32)c(C(C)C)cc1OCC(O)CNc1c(C)n(C)n(-c2ccccc2)c1=O (stereo unspecified) .
RESULT: -36.5

QUERY: // query growth value for entry `Cc1cccc(C)c1Nc1nnc(-c2c[nH]c3ccccc23)o1`
RESULT: 79.1

QUERY: Give its growth value. Item: `COc1cc(/C=N/NC(=O)c2ccc(OCc3nc4ccc(Cl)cc4[nH]3)cc2)cc(OC)c1OC`
RESULT: 52.8

###

# Test system: MDA-MB-435 melanoma
# assay procedure: NCI-60 one-dose screen, 48 h
# test context: 10 µM unless noted
The panel holds about 83,000 compounds, 20% with a hit somewhere; the sample as a whole holds those more often. Activity calls are given as the source filed them. Rule for the calls: active = growth percent below 10; inactive = the rest.
I would appreciate it if you answered using one of these outcomes: active, inactive

Known results for compounds:
Cc1cnc2ccc(Oc3ccccc3-c3ccccc3)nn12
inactive
C/C(=N/O)c1ccc(NC(=O)CSc2nnc(-c3ccc(-c4nc5ccc(Cl)cc5[nH]4)cc3)o2)cc1
active
COc1ccc2[nH]c(O)c(N=Nc3nc(-c4ccc(C#N)cc4)cs3)c2c1
inactive

QUERY: # lookup: test call for `Cc1ccc2c(c1)/C(=C/C(=O)c1cc3ccccc3oc1=O)C(=O)N2`
RESULT: inactive

QUERY: Look up the recorded call for COc1cc(CNC(=O)[C@]23CCC(C)(C)CC2C2=CCC4[C@@]5(C)CCC(OC(C)=O)C(C)(C)C5CC[C@@]4(C)[C@]2(C)CC3)ccc1OCc1cn(-c2ccc(Cl)cc2Cl)nn1 (stereo not given in full) in this test.
RESULT: inactive

###

# Tested on: SF-539 CNS
# assay procedure: NCI-60 one-dose screen, 48 h (100 = growth as untreated, 0 = no growth, -100 = all killed)
# test context: 10 µM unless noted
This is part of a sample that, as a whole, favours compounds with a hit. Of some 83,000 tested, about 20% had one in any assay. Active and inactive are the calls of the source. The calls were made as follows: active = growth percent below 10; inactive = the rest.
Entries and their growth

Use the examples below as a reference point.
COc1cc(CNC(=O)C[C@H](C)CCC=C(C)C)ccc1OCc1cn(-c2ccccc2Cl)nn1
75.2% (inactive)
Cc1ccc(C(C)C)cc1Oc1cccc(-c2c(-c3ccc(C(F)(F)F)cc3)ncn2C2CCNCC2)n1
-98.2% (active)
O=C1c2cccc3c(N4CCN(c5ccccc5)CC4)ccc(c23)C(=O)N1c1cccc(-c2nn(-c3ccccc3)cc2-c2nc3ccccc3s2)c1
95.1% (inactive)
Fc1ccc(N2CC(Cn3c(C(F)(F)F)cc4c(Cl)ncnc43)C2)c(F)c1
50.2% (inactive)
CCCCCCCCc1ccc(C(=O)Nc2cccc(O)c2)cc1
79.7% (inactive)

QUERY: # query: growth of entry `NNc1ncnc2sc3c(c12)CCN(Cc1ccccc1)C3`
RESULT: 52.8% (inactive)

QUERY: Fill in the blank: the reported growth of COc1cc(C2CC(c3ccc(Cl)cc3)=Nc3c(N)nc(N)nc3N2)ccc1Oc1nc(Nc2ccc(F)cc2)nc(N(C)C)n1 (stereo not drawn) is ____.
RESULT: 63.7% (inactive)

QUERY: Consider the compound O=C1CC(c2ccc(I)cc2)OC2C=Cc3ccccc3C12 (stereo not drawn) and give its measured growth.
RESULT: 106% (inactive)

QUERY: Reported growth for `O=C(CSc1nnc(-c2ccc(-c3nc4ccccc4[nH]3)cc2)o1)Nc1ccc(Cl)cc1` : what is it?
RESULT: -94.2% (active)

QUERY: What growth value was documented for this compound, `COc1cc2cc(C(=O)N3C[C@@H](CCl)c4c3cc(OC(=O)N(CCC(=O)N3CCN(C)CC3)C3CCCCC3)c3ccccc43)[nH]c2c(OC)c1OC` ?
RESULT: -93% (active)

###

# System: MALME-3M melanoma
# assay procedure: NCI-60 one-dose screen, 48 h
# test context: 10 µM unless noted
Compounds without any hit were thinned out: in the full panel of roughly 83,000, 20% have a hit. Calls of active or inactive are those of the source. Rule for the calls: active = growth percent below 10; inactive = the rest.
// allowed return values: active, inactive

Worked examples follow.
COc1ccc2nc(NC(=O)c3ccc(N(C)C)cc3)sc2c1
inactive
Cc1ccc(N=Nc2c(N)nn3c(-c4cc5ccccc5oc4=O)ccnc23)cc1
inactive
N#CC1=C(c2ccco2)Nc2c(c(-c3ccccc3)nn2-c2ccccc2)C12C(=O)Nc1ccc(Br)cc12 (centres undefined)
inactive

Okay, now this compound:
QUERY: I would be grateful if you could indicate the recorded call for `Nc1cc(-c2c[nH]c3ccc(F)cc23)nc2cc(-c3c[nH]c4ccccc34)nn12` .
RESULT: active

###

# System: SN12C renal
# assay procedure: NCI-60 one-dose screen, 48 h
# test context: 10 µM unless noted
# Protocol: Growth inhibition of the SN12C human tumor cell line is measured as a screen for anti-cancer activity. Cells are grown in 96 well plates and exposed to the test compound for 48 hours. Compounds are tested at a single concentration, which is 10^-5 M for most compounds. The reported endpoint is percent growth (GI% or GIPRCNT), where numbers from 0 - 100% represent growth inhibition, and numbers from -100% - 0 represent cell death. For example, a value of 40 represents 60% growth inhibition. […]
This is part of a sample that, as a whole, favours compounds with a hit. Of some 83,000 tested, about 20% had one in any assay. The source made the active and inactive calls. How the source made its calls: active means growth percent below 10; inactive means the rest.
Log the outcome using a class from T for active, F for inactive

Consider the worked cases shown below.
COc1ccc2[nH]c(O)c(N=Nc3nc(-c4ccc(Br)cc4)cs3)c2c1
T
CC1=C(C(=O)Nc2ccccc2)C(c2ccc3ccccc3c2)n2c(nc3ccccc32)N1 (configuration not stated)
F
Cc1ccc(C(=O)C[n+]2cccc3c4ccccc4ccc32)cc1
F
Cn1cc(-c2cc(N)n3nc(-c4c[nH]c5ccc(F)cc45)cc3n2)c2cccnc21
T
Nc1ccc(-c2ccc3ncnc(N4CCc5cc(F)c(Cl)cc54)c3c2)cn1
F

QUERY: Write down the call the test reported for this molecule. Item: `O=C(/C=C1\C(=O)N(Cc2ccccc2)c2ccccc21)c1cc2ccccc2oc1=O`
RESULT: F

QUERY: Outcome logged for `O=C1Nc2ccc(F)cc2/C1=C/C(=O)c1cc2ccccc2oc1=O` in this assay:
RESULT: F

QUERY: Call for entry `CS(=O)(=O)Nc1cc(-c2ccc3ncnc(N4CCc5cc(F)c(Cl)cc54)c3c2)cnc1Cl` :
RESULT: F

QUERY: # outcome recorded in this test, key = `COc1ccc(NC(=O)Nc2nc3ccc([N+](=O)[O-])cc3s2)cc1`
RESULT: T

QUERY: Tell me the recorded outcome of this test for `O=C1NC(=S)/C(=C/c2cn(-c3ccccc3)nc2-c2ccccc2)S1` .
RESULT: F

QUERY: Each molecule tested received a call. Report the one for `O=C(Cc1c(-c2ccccc2[N+](=O)[O-])n(-c2ncnc3c2c(-c2ccccc2)c(-c2ccccc2)n3Cc2ccccc2)[nH]c1=O)c1ccc(Cl)c(Cl)c1` .
RESULT: F

QUERY: Just curious, what result did N#CC1=C(c2ccco2)Nc2c(c(-c3ccccc3)nn2-c2ccccc2)C12C(=O)Nc1ccc(Cl)cc12 (configuration not stated) get here?
RESULT: T
